Listed molecules paired with reported Ki
target: Cathepsin S (Homo sapiens, UniProt P25774); assay: Cathepsin S inhibition assay (fluorogenic peptide substrate); type: biochemical; conditions: Table II, compounds of Formula I; read-out: Ki Cat. S
Sequence (P25774 115-331, species assumed): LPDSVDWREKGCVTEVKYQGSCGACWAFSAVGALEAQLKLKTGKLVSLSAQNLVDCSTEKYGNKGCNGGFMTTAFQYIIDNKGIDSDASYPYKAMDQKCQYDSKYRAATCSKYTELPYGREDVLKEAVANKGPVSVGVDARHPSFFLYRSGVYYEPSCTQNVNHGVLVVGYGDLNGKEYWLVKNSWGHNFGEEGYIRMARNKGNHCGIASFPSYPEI

COc1ccc(NCCNC(=O)[C@H](CCC2CCCCC2)NC(=O)c2ccc(-c3ccccc3)cc2)cc1 [Compound 130]
< 10000 nM
COc1ccc(NCCNC(=O)[C@H](Cc2ccc(-c3ccc(CO)cc3)cc2)NC(=O)c2cccc(C)c2)cc1 [Compound 282]
< 1000 nM
COc1ccc(NCCNC(=O)[C@H](CC2CCCCC2)NC(=O)c2cc(-c3ccc(OC)cc3)cs2)cc1 [Compound 191]
< 100 nM

// next entry
Can you look up Ki on Cathepsin S (Homo sapiens, UniProt P25774) for COc1ccc(NCCNC(=O)[C@H](CCC2CCCCC2)NC(=O)c2cccc(C(F)(F)F)c2)cc1 [Compound 126] ?
< 100 nM

# credit: patent US7109243B2
